Data provenance is ChEMBL document CHEMBL1129356.

Below is a list of entries, each paired with its recorded AH interval value.
# System: Canis familiaris
# assay procedure: Antiarrhythmic property A-V nodal conduction time(drug free) is compared to lidocaine(2) using doses(3 and 6 mg/kg)
# Type: functional, Canis lupus familiaris, Heart
Unit ms implied. Number only.

                      smiles_representation  observed_measurement
0  CC(C)N1CC2CC(CN(C(=O)c3ccc(N)cc3)C2)C1.Cl.Cl                    55
1         CC(C)N1CC2CN(C(C)C)CC(C1)C21SCCS1                    56
2  CC(C)N1CC2CC(CN(C(=O)c3ccc(-n4ccnc4)cc3)C2)C1                    57
3  O=C(c1ccc(Cl)cc1)N1CC2CC(CN(CC3CC3)C2)C1                    60
4      O=C(c1ccccc1)N1CC2CC(CN(CC3CC3)C2)C1                    65

Next, consider the following compound.
Recorded AH interval (compound "CC(C)N1CC2CC(CN(C(=O)c3ccc([N+](=O)[O-])cc3)C2)C1.Cl" ): 60
